Each record here notes measured log10(koff).
Target: T1, recombinant human VEGF121 (human, UniProt P15692 27-147)
T1 construct: mature; Isoform VEGF121 of the entry; also called hVEGF121
T1 sequence (looked up): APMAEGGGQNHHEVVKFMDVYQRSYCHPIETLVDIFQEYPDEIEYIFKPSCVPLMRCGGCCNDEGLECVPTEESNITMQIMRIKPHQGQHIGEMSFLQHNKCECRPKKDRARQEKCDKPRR
Test: Biacore SPR, VEGF immobilized, pH 5
readoutLabel: log10(koff) (log10 of the value in s⁻¹)

# binder, readoutLabel, testValue
records = [
    ("567-max (scFv, VL and VH tied by name; also called Protein Nr; 874) scFv: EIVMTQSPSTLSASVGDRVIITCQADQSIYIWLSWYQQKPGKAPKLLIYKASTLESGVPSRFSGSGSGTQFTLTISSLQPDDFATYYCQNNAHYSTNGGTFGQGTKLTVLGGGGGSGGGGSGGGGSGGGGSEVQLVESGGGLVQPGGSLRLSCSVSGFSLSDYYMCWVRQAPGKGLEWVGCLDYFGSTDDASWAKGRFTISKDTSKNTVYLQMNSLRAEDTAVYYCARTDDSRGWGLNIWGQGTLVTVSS", "log10(koff)", -4.24),
    ("567-min (scFv, also called Protein Nr; 884) scFv: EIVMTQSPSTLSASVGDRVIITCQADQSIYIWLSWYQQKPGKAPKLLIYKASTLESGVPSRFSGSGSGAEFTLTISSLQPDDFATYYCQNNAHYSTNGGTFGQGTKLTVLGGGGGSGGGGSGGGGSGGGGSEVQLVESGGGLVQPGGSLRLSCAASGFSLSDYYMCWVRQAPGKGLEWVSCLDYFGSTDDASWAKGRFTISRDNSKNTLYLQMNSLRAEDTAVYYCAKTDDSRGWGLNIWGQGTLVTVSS", "log10(koff)", -4.34),
    ("578-min (scFv, also called EP578 min; Protein Nr; 820) scFv: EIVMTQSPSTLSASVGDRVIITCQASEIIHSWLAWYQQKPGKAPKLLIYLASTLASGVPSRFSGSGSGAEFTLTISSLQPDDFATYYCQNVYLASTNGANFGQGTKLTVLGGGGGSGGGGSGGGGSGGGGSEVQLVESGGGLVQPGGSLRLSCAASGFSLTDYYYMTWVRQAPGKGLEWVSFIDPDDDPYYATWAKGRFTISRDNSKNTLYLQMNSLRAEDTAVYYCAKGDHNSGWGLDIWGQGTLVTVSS", "log10(koff)", -2.06),
    ("578-max (scFv, also called EP578max; #821) scFv: EIVMTQSPSTLSASVGDRVIITCQASEIIHSWLAWYQQKPGKAPKLLIYLASTLASGVPSRFSGSGSGTQFTLTISSLQPDDFATYYCQNVYLASTNGANFGQGTKLTVLGGGGGSGGGGSGGGGSGGGGSEVQLVESGGGLVQPGGSLRLSCTASGFSLTDYYYMTWVRQAPGKGLEWVGFIDPDDDPYYATWAKGRFTISRDTSKNTVYLQMNSLRAEDTAVYYCAGGDHNSGWGLDIWGQGTLVTVSS", "log10(koff)", -3.25),
    ("509-max (scFv, VL and VH tied by name; also called Protein Nr; 855) scFv: EIVMTQSPSTLSASVGDRVIITCQASQNIRIWLSWYQQKPGKAPKLLIYKASTLESGVPSRFSGSGSGTEFTLTISSLQPDDFATYYCQNNAHYSTNGGTFGQGTKLTVLGGGGGSGGGGSGGGGSGGGGSEVQLVESGGGLVQPGGSLRLSCTASGFSLSSYYMCWVRQAPGKGLEWVGCLDYVGDTDYASWAKGRFTISKDASKNTVYLQMNSLRAEDTAVYYCARTDDSRGWGLNIWGQGTLVTVSS", "log10(koff)", -3.60),
    ("511-min (scFv, VL and VH tied by name; also called Protein Nr) scFv: EIVMTQSPSTLSASVGDRVIITCQASQSINIWCSWYQQKPGKAPKLLIYRASTLASGVPSRFSGSGSGAEFTLTISSLQPDDFATYYCQANYAYSAGYGAAFGQGTKLTVLGGGGGSGGGGSGGGGSGGGGSEVQLVESGGGLVQPGGSLRLSCAASGFSLNTYYMNWVRQAPGKGLEWVSIIAPDDTTYYASWAKSRFTISRDNSKNTLYLQMNSLRAEDTAVYYCAKSGDTTAWGADIWGQGTLVTVSS", "log10(koff)", -3.02),
]
